# assay system: Jak2 (UniProt O60674)
# Sequence (O60674 whole entry, looked up): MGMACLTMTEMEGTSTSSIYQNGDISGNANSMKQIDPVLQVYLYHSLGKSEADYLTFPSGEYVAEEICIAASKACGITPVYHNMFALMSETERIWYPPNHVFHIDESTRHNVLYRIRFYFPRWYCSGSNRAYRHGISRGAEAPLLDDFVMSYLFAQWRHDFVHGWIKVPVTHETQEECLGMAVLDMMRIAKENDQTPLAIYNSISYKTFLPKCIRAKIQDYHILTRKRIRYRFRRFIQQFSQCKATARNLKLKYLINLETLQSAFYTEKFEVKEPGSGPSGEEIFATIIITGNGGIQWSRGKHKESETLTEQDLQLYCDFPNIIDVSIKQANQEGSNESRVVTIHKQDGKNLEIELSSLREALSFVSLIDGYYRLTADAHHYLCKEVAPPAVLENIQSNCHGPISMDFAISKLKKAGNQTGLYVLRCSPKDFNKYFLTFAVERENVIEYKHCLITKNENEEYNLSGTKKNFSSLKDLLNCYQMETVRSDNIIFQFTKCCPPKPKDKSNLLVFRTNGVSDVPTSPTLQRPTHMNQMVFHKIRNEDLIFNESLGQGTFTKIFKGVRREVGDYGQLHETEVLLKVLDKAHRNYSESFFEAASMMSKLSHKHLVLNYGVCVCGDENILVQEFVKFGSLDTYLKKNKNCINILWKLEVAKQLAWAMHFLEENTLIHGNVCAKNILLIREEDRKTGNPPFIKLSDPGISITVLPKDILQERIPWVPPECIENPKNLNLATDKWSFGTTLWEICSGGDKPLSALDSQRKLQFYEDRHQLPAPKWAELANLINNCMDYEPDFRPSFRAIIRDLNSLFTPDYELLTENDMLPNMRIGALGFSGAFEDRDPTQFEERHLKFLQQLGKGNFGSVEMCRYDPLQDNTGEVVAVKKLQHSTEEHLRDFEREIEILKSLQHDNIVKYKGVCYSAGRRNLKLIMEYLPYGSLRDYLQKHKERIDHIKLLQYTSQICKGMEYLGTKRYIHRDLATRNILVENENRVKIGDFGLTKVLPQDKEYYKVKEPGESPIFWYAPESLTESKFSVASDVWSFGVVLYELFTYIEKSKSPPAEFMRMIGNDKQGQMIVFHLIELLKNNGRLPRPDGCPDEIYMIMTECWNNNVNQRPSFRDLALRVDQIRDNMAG
# protocol summary: phosphorylation enrichment, bacterial display (enrichment ratio); higher = better substrate or ligand; peptides without Tyr show the background;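 also: 11-residue human phosphosite peptides and single-mutation variants displayed on the E. coli surface, counted by deep sequencing, each peptide's frequency after selection divided by its frequency in the unselected input library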;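 also: frequency after pTyr selection over input frequency; kinase dosed for 20-30% of maximal phosphorylation in three min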
reported endpoint: phosphorylation enrichment
One number for each entry.

item sequence: ALTDNYMYVVI [HAGH_Y61_L64V]
phosphorylation enrichment: 2.65

item sequence: SSQAHYRLSAF [ADAMTS9_Y100]
phosphorylation enrichment: 0.482

item sequence: TILEHYRRTHC [MYBPC3_Y1119_V1115I]
phosphorylation enrichment: 0.781

item sequence: AASHRYDLGGL [QPRT_Y162]
phosphorylation enrichment: 0.521

item sequence: QNTGDDFDLFG [PTPN11_Y62_Y62D_YF]
phosphorylation enrichment: 1.6

item sequence: INSLKYAYNIS [EIF2B5_Y583]
phosphorylation enrichment: 0.569

item sequence: EQLRAYLEGTC [HLA-C_Y183]
phosphorylation enrichment: 0.866

item sequence: DKTGEYPVPLI [ACADM_Y73]
phosphorylation enrichment: 0.856

List the reported phosphorylation enrichment of each sequence below.
1. PLDGEYFTRQI [TP53_Y327_L330R]
2. REIIAYQPYGK [PRKCG_Y529_P524R]
3. SVTCTCSPALN [TP53_Y126_Y126C]
4. TAGEPYHDIRF [BAP1_Y223]

[reply]
[0.637, 0.531, 1.15, 0.64]

List the reported phosphorylation enrichment of each sequence below.
1. DLSEVYKPRRK [CCDC93_Y176]
2. YCRITYDIFPF [INTS13_Y67_M66T]
3. VPLLEYFWDIF [CDAN1_Y712_R714W_YF]

[reply]
1. 0.574
2. 1.45
3. 1.12

List the reported phosphorylation enrichment of each sequence below.
1. LAGRYYALRSM [CKB_Y174_K177R]
2. TDHLQYFDSNK [ARAP1_Y359_R358Q]
3. LFMGDYVGRGY [PPP2CA_Y86_D88G]
4. DDDPEDRKFLE [UPF3B_Y160_Y160D]
5. ITRDEYPSNPM [CEMIP2_Y1015]

[reply]
1. 1.66
2. 0.914
3. 2.97
4. 1.17
5. 0.497
